test system: T1, FLAG-Mm_Fpr1 C-terminally fused to Renilla Luciferase 8 (mouse, UniProt P33766 1-364)
T1 sequence (looked up): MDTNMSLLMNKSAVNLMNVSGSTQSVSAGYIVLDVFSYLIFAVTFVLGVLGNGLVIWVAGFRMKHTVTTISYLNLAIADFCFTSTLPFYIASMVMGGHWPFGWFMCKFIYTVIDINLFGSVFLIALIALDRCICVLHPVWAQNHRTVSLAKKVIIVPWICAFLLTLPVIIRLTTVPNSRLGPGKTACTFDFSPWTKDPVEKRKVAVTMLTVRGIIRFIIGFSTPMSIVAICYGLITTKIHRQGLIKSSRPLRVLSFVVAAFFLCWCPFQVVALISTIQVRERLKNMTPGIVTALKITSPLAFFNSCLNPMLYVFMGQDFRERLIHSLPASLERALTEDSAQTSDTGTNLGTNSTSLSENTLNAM
measurement protocol: cell-based or functional assay
Where no end group is shown, it is not given here. [ ]: non-standard residue; d: D form. The star is where a group is joined. For = O=C*
metric: BRET of receptor-RLuc8 with Venus-mGsi: Emax (% of 1 μM WKYMVm) (%)

binder	result unit	observed result
WKYMV[dM] (the last residue is the D form; the bought peptide is probably also an amide (surmise); source: bought: Tocris) [WKYMVm]	%	109
For-MTPMRKINPLMKLIN [MCT-2 (Formyl-MTPMRKINPLMKLIN from Cytochrome b)]	%	-8.19
For-MLFK [fMet-Leu-Phe-Lys (fMLFK)]	%	62.9
For-Met-Leu-Phe [fMet-Leu-Phe (fMLF)]	%	59.3
WKYMVM (synthetic hexapeptide, all L residues; also called L-enantiomer of WKYMVm; source: bought: Tocris)	%	37.5
